target: focal adhesion kinase (FAK) autophosphorylation at tyrosine 397 in HT29 cells (Homo sapiens); construct: endogenous in cells; host or cells: HT29; test: Cellular testing of FAK inhibitors: FAK autophosphorylation at tyrosine 397 in HT29 cells (Luminex-based assay); assay type: cell-based; conditions: Table 4, phospho-Y397-FAK, 30 min serum-free, read-out: IC50 HT-29
Sequence (Q05397 whole entry): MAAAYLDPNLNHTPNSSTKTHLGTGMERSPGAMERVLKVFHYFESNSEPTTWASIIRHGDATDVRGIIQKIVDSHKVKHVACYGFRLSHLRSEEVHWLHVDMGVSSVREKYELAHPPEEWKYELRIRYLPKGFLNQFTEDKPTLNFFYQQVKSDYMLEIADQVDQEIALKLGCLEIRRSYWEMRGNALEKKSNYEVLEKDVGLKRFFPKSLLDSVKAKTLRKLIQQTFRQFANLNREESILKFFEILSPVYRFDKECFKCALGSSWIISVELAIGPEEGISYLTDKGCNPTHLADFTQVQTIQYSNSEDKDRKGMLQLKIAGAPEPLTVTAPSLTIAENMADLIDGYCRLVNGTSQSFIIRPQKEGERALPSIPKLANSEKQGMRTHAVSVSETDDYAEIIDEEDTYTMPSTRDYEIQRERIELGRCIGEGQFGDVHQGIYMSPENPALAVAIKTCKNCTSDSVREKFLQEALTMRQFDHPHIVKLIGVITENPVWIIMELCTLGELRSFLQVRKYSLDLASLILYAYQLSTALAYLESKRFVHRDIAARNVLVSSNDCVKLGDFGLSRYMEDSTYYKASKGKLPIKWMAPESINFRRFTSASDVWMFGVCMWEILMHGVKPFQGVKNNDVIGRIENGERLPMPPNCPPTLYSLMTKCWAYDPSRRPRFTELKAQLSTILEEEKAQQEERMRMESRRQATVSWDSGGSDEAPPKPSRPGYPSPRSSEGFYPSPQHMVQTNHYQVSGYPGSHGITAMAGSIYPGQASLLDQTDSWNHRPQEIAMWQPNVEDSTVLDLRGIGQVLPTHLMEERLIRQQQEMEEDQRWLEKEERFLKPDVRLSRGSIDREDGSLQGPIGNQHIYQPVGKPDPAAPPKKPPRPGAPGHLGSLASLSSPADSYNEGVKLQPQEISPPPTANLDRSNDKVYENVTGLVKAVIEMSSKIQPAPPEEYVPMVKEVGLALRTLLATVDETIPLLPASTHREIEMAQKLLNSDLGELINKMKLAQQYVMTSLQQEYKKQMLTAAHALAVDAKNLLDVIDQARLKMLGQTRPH
pIC50: −log10 of the molar value.
propertyName: pIC50

Worked set:
[
  {
    "entrySmiles": "O=C(NCCN1CCCC1=O)c1cc(NCc2ccc(F)cc2F)nc(-c2cncc(C(F)(F)F)c2)n1",
    "pIC50": "6.00 to 7.00"
  },
  {
    "entrySmiles": "CN(C)CCNC(=O)c1cc(NCc2ccc(F)cc2F)nc(-c2cncc(C(F)(F)F)c2)n1",
    "pIC50": "6.00 to 7.00"
  }
]

Now turn to the next compound.
input: Could you please provide reported pIC50 for Fc1ccc(F)c(CNc2ccnc(-c3cncc(C(F)(F)F)c3)n2)c1 ? Thanks!
output: 5.00 to 6.00

====

biological target: focal adhesion kinase (FAK) autophosphorylation at tyrosine 397 in HT29 cells (Homo sapiens); construct: endogenous in cells; host or cells: HT29; assay: Cellular testing of FAK inhibitors: FAK autophosphorylation at tyrosine 397 in HT29 cells (Luminex-based assay); type: cell-based; settings: Table 3, phospho-Y397-FAK, 30 min serum-free, read-out: HT-29 IC50
propertyName: IC50

Answered examples (5):
[
  {
    "compound": "CC(Nc1ccnc(-c2cncc(C(F)(F)F)c2)n1)c1ccccc1C(F)(F)F (centres unmarked)",
    "propertyName": "IC50",
    "dataValue": "> 10 µM"
  },
  {
    "compound": "Clc1cncc(-c2nccc(NCc3cccc4c3OCO4)n2)c1",
    "propertyName": "IC50",
    "dataValue": "> 10 µM"
  },
  {
    "compound": "Fc1ccc(CNc2ccnc(-c3cncc(C(F)(F)F)c3)n2)c(F)c1",
    "propertyName": "IC50",
    "dataValue": "1 to 10 µM"
  },
  {
    "compound": "Nc1ncc(Cl)cc1-c1nccc(NCc2ccc(F)cc2C(F)(F)F)n1",
    "propertyName": "IC50",
    "dataValue": "1 to 10 µM"
  },
  {
    "compound": "Nc1ncc(Cl)cc1-c1nccc(NCc2ccc(F)cc2F)n1",
    "propertyName": "IC50",
    "dataValue": "1 to 10 µM"
  }
]

input: Find the measured IC50 of Fc1ccc(CNc2ccnc(-c3cncc(C(F)(F)F)c3)n2)c(C(F)(F)F)c1 and report it.
output: 1 to 10 µM

input: Please list IC50 recorded for the compound Nc1ncc(Cl)cc1-c1nccc(NCc2ccccc2C(F)(F)F)n1
output: 1 to 10 µM

input: Return IC50 (reported value) for this compound: Nc1ncccc1-c1nccc(NCc2ccccc2C(F)(F)F)n1
output: > 10 µM

input: Please list IC50 recorded for the compound FC(F)(F)c1cc(Cl)ccc1CNc1ccnc(-c2cncc(Cl)c2)n1
output: 1 to 10 µM

input: Consider the compound FC(F)(F)c1ccccc1CNc1ccnc(-c2cncc(Cl)c2)n1 . State its measured IC50.
output: 1 to 10 µM

input: Using the record for FC(F)(F)c1cncc(-c2nccc(NCc3ccc(Cl)cc3C(F)(F)F)n2)c1 , state its measured IC50.
output: 1 to 10 µM

====

biological target: GST-FAK (N-terminal GST fusion with truncated human FAK (376-1052 (end) amino acids)) (Homo sapiens); construct: truncated human FAK (376-1052 (end) amino acids); assay: Biochemical enzyme assay for FAK activity (Caliper LC3000 mobility shift); settings: Table 3; 100 uM ATP; read-out: FAK IC50
pIC50: −log10 of the molar value.
Listed next: entries and their corresponding pIC50.

[
  {
    "compound": "CNCC(Nc1ccnc(-c2cccnc2)n1)c1ccccc1 (stereo not shown) [Compound 143]",
    "dataValue": "< 5.00"
  },
  {
    "compound": "Nc1ncccc1-c1nccc(NCc2cccnc2C(F)(F)F)n1 [Compound 137]",
    "dataValue": "5.00 to 6.00"
  },
  {
    "compound": "Nc1ncccc1-c1nccc(N2Cc3ccccc3C2=O)n1 [Compound 120]",
    "dataValue": "< 5.00"
  },
  {
    "compound": "COc1ccc(CNc2ccnc(-c3cccnc3N)n2)cc1 [Compound 97]",
    "dataValue": "< 5.00"
  },
  {
    "compound": "Cc1ccc(CNc2ccnc(-c3cccnc3N)n2)c(F)c1 [Compound 101]",
    "dataValue": "5.00 to 6.00"
  },
  {
    "compound": "Nc1ncccc1-c1nccc(NCc2ncccc2C(F)(F)F)n1 [Compound 100]",
    "dataValue": "5.00 to 6.00"
  },
  {
    "compound": "Cc1cccc(CNc2ccnc(-c3cccnc3N)n2)c1 [Compound 95]",
    "dataValue": "< 5.00"
  },
  {
    "compound": "Nc1ncccc1-c1nccc(NCc2ccccc2)n1 [Compound 81]",
    "dataValue": "5.00 to 6.00"
  }
]

input: Query pIC50 for Clc1cncc(-c2nccc(NCc3cccc4c3OCO4)n2)c1 [Compound 127]
output: > 7.00

input: Supply reported pIC50 belonging to this compound: Nc1ncc(Cl)cc1-c1nccc(NCc2ccc(F)cc2F)n1 [Compound 126]
output: > 7.00

====

molecular target: GST-FAK (N-terminal GST fusion with truncated human FAK (376-1052 (end) amino acids)) (Homo sapiens, UniProt Q05397); construct: truncated human FAK (376-1052 (end) amino acids); assay: Biochemical enzyme assay for FAK activity (Caliper LC3000 mobility shift); details: Table 2; 100 uM ATP; read-out: FAK IC50
The entries below come with measured IC50 values attached.

input: State, in one line, measured IC50 of CNC(=O)[C@H](NC(=O)c1cc(NCc2ccc(F)cc2F)nc(-c2cncc(C(F)(F)F)c2)n1)C(C)C
output: 100 to 1000 nM

input: Provide IC50 value for the following compound: O=C(NCCCN1CCCC1=O)c1cc(NCc2ccc(F)cc2F)nc(-c2cncc(C(F)(F)F)c2)n1
output: < 100 nM

input: For the compound Cc1nc(CCNC(=O)c2cc(NCc3ccc(F)cc3F)nc(-c3cncc(C(F)(F)F)c3)n2)cs1 , report IC50.
output: 100 to 1000 nM

input: State its IC50 for this compound: O=C(NCCc1c[nH]cn1)c1cc(NCc2ccc(F)cc2F)nc(-c2cncc(C(F)(F)F)c2)n1
output: < 100 nM

input: For CC(=O)NCCNC(=O)c1cc(NCc2ccc(F)cc2F)nc(-c2cncc(C(F)(F)F)c2)n1 , write its IC50.
output: < 100 nM

====

Recorded IC50 values for a group of compounds are listed next.
molecular target: GST-FAK (N-terminal GST fusion with truncated human FAK (376-1052 (end) amino acids)) (Homo sapiens, UniProt Q05397); construct: truncated human FAK (376-1052 (end) amino acids); assay: Biochemical enzyme assay for FAK activity (Caliper LC3000 mobility shift); conditions: Table 4; 100 uM ATP; read-out: IC50 FAK

Please review the entries below; each comes with its answer.
[
  {
    "entrySmiles": "N#Cc1cncc(-c2nccc(NCc3ccc(F)cc3F)n2)c1",
    "dataValue": "100 to 1000 nM"
  },
  {
    "entrySmiles": "CN(C)CCNC(=O)c1cc(NCc2ccc(F)cc2F)nc(-c2cncc(C(F)(F)F)c2)n1",
    "dataValue": "< 100 nM"
  },
  {
    "entrySmiles": "O=C(NCCN1CCCC1=O)c1cc(NCc2ccc(F)cc2F)nc(-c2cncc(C(F)(F)F)c2)n1",
    "dataValue": "< 100 nM"
  },
  {
    "entrySmiles": "Fc1ccc(F)c(CNc2ccnc(-c3cncc(C(F)(F)F)c3)n2)c1",
    "dataValue": "100 to 1000 nM"
  }
]

input: Fill in IC50 for record CS(=O)(=O)n1cc(Nc2ccnc(-c3cncc(C(F)(F)F)c3)n2)cn1
output: 100 to 1000 nM

====

molecular target: GST-FAK (N-terminal GST fusion with truncated human FAK (376-1052 (end) amino acids)) (Homo sapiens); construct: truncated human FAK (376-1052 (end) amino acids); test: Biochemical enzyme assay for FAK activity (Caliper LC3000 mobility shift); conditions: Table 1; 100 uM ATP; read-out: FAK IC50
Each entry below carries its recorded IC50.

These recorded examples may help you get a feel for the data.
[
  {
    "compound": "COc1cncc(-c2nccc(NCc3ccc4c(c3)OCCO4)n2)c1 [Compound 6]",
    "IC50": "> 10 µM"
  },
  {
    "compound": "Fc1cncc(-c2nccc(NCc3cccc(-n4cccn4)c3)n2)c1 [Compound 11]",
    "IC50": "> 10 µM"
  },
  {
    "compound": "FC(F)(F)c1cncc(-c2nccc(NCc3cccc(-n4cccn4)c3)n2)c1 [Compound 29]",
    "IC50": "1 to 10 µM"
  },
  {
    "compound": "COc1cncc(-c2nccc(NCc3ccc(N4CCOCC4)cc3)n2)c1 [Compound 4]",
    "IC50": "> 10 µM"
  },
  {
    "compound": "Clc1cncc(-c2nccc(NCC3CC3)n2)c1 [Compound 36]",
    "IC50": "1 to 10 µM"
  },
  {
    "compound": "O=C(c1cncc(-c2nccc(NCc3ccc(N4CCOCC4)cc3)n2)c1)N1CCOCC1 [Compound 14]",
    "IC50": "> 10 µM"
  }
]

input: Using the record for FC(F)(F)c1cncc(-c2nccc(NCc3ccc(N4CCOCC4)cc3)n2)c1 [Compound 28] , state its measured IC50.
output: > 10 µM

input: State its IC50: CC1(C)Cc2cccc(CNc3ccnc(-c4cncc(C(=O)N5CCOCC5)c4)n3)c2O1 [Compound 40]
output: > 10 µM

input: Please report the measured IC50 for O=C(c1cncc(-c2nccc(NCc3ccc4c(c3)OCCO4)n2)c1)N1CCOCC1 [Compound 15]
output: > 10 µM

input: Dear colleague, please send me the reported IC50 for Clc1cncc(-c2nccc(NCC3CCCCC3)n2)c1 [Compound 37] when you can.
output: 1 to 10 µM

input: Answer with the recorded IC50 for the compound listed here: Fc1ccc(Oc2ccc(CNc3ccnc(-c4cncc(Cl)c4)n3)cc2)cc1 [Compound 31]
output: > 10 µM

input: Report measured IC50; entry is CC1(C)Cc2cccc(CNc3ccnc(-c4cncc(C(F)(F)F)c4)n3)c2O1 [Compound 26]
output: > 10 µM

input: Please report IC50 for the following compound: Fc1cncc(-c2nccc(NCc3ccc(N4CCOCC4)cc3)n2)c1 [Compound 10]
output: > 10 µM

input: Name the recorded IC50 of the compound listed here: Fc1cncc(-c2nccc(NCc3ccc(Cl)cc3F)n2)c1 [Compound 33]
output: < 0.1 µM

input: Provide one value: measured IC50 of Fc1ccc(Oc2ccc(CNc3ccnc(-c4cncc(C(F)(F)F)c4)n3)cc2)cc1 [Compound 25]
output: > 10 µM

input: # return recorded IC50 for entry COc1cncc(-c2nccc(NCc3cccc(-n4cccn4)c3)n2)c1 [Compound 5]
output: 1 to 10 µM

input: Give reported IC50 value for O=C(c1cncc(-c2nccc(NCc3cccc(-n4cccn4)c3)n2)c1)N1CCOCC1 [Compound 34]
output: > 10 µM
